# Assay System: human FOXO1 (constitutively active form Thr24Ala, Ser256Ala, Ser319Ala) (Homo sapiens, UniProt Q12778, S256A/S319A/T24A)
# Sequence (Q12778 whole entry T24A/S256A/S319A): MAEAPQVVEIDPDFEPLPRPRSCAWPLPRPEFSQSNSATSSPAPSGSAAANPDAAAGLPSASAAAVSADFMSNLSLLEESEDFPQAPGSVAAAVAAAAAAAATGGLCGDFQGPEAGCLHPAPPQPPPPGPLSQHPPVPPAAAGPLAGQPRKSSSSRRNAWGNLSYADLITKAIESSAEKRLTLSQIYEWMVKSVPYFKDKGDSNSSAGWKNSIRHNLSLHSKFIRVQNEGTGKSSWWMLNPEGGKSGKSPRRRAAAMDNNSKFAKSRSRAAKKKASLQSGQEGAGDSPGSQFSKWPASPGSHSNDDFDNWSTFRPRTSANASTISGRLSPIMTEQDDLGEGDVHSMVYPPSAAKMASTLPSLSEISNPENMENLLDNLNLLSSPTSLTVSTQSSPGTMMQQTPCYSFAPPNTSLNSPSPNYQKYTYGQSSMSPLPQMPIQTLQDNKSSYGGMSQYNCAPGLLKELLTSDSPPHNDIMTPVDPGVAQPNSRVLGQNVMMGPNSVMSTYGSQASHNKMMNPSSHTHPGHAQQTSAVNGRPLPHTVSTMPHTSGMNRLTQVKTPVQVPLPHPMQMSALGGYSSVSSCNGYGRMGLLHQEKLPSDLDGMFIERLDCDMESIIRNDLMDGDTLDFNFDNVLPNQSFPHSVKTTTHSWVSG
# Run Description: FOXO1 inhibitor activity assay: cell-based transcriptional (luciferase) reporter assay in HEK293 cells
# Condition: HEK293 cells transfected with insulin response element firefly luciferase reporter, FOXO1 and Renilla luciferase; 10-point dose response 50 μM to 2.5 nM; 24 hours
pIC50: −log10 of the molar value.
Parameter Measured: pIC50

Query :: Look up and state reported pIC50 for O=C(Nc1cc(-c2nc3ccccc3[nH]2)[nH]n1)c1ccc(OCCO)c(Cl)c1
Result :: > 7.00

Query :: Report pIC50 for O=C(O)COc1ccc(C(=O)Nc2cc(-c3nc4ccccc4[nH]3)[nH]n2)cn1
Result :: < 6.00

Query :: Identify pIC50 associated with the compound CCOCCNc1ccc(C(=O)Nc2cc(-c3nc4ccccc4[nH]3)[nH]n2)cn1
Result :: 6.52 to 7.00

---
Query :: Retrieve pIC50 measured for O=C(Nc1cc(-c2nc3ccccc3[nH]2)[nH]n1)c1ccc(N2CC[C@@H](O)C2)cc1 and print it.
Result :: > 7.00

----------
Here the recorded IC50 is given for each entry.
# Assay System: human FOXO1 (constitutively active form Thr24Ala, Ser256Ala, Ser319Ala) (Homo sapiens, UniProt Q12778, S256A/S319A/T24A)
# Construct: expressed in transfected cells; host or cells: HEK293 cells transfected with pcDNA3.1 plasmid
# Run Description: FOXO1 inhibitor activity assay: cell-based transcriptional (luciferase) reporter assay in HEK293 cells
# Condition: HEK293 cells transfected with insulin response element firefly luciferase reporter, FOXO1 and Renilla luciferase; 10-point dose response 50 μM to 2.5 nM; 24 hours

Query :: Recall and state the measured IC50 for N#Cc1cc(C(=O)Nc2cc(-c3nc4ccccc4[nH]3)[nH]n2)ccc1OCCO .
Result :: > 1000 nM

----------
# Assay System: human FOXO1 (constitutively active form Thr24Ala, Ser256Ala, Ser319Ala) (Homo sapiens, UniProt Q12778, S256A/S319A/T24A)
# Construct: expressed in transfected cells; host or cells: HEK293 cells transfected with pcDNA3.1 plasmid
# Run Description: FOXO1 inhibitor activity assay: cell-based transcriptional (luciferase) reporter assay in HEK293 cells
# Condition: HEK293 cells transfected with insulin response element firefly luciferase reporter, FOXO1 and Renilla luciferase; 10-point dose response 50 μM to 2.5 nM; 24 hours
Parameter Measured: IC50

Query :: Complete the entry with IC50 for Cc1nc(N2CCN(C)CC2)ccc1C(=O)Nc1cc(-c2nc3ccccc3[nH]2)n(C)n1
Result :: 100 to 300 nM

Query :: Please supply the value of reported IC50 for the item COCCOc1ccc(C(=O)Nc2cc(-c3nc4cc(OC)ccc4[nH]3)[nH]n2)cc1Cl
Result :: < 100 nM

Query :: Respond only with IC50 recorded for O=C(Nc1cc(-c2nc3ccccc3[nH]2)[nH]n1)c1ccc(N2CCCC(O)C2)nc1 (stereo not drawn)
Result :: 300 to 1000 nM

Query :: Using known records, supply IC50 for COc1ccc(C(=O)Nc2cc(-c3nc4ccccc4[nH]3)[nH]n2)cc1F
Result :: < 100 nM

Query :: Dear colleague, please send me the reported IC50 for CC(=O)N1CCN(c2ccc(C(=O)Nc3cc(-c4nc5ccccc5[nH]4)[nH]n3)cn2)CC1 when you can.
Result :: 300 to 1000 nM

Query :: // fetch IC50 given entry Cn1nc(NC(=O)c2ccc(N3CCNC(CO)C3)nc2)cc1-c1nc2ccccc2[nH]1 (stereo not drawn)
Result :: 300 to 1000 nM

Query :: Let me know recorded IC50 for COc1cc(F)c2[nH]c(-c3cc(NC(=O)c4ccc(N5CCN(CCO)CC5)nc4)nn3C)nc2c1 , thanks.
Result :: 100 to 300 nM

Measured values drawn from patent US20230416228A1 for this set.
